The measurements presented in this section are drawn from patent US9561228B2.

tested on: ERK1/2 phosphorylation of p90RSK in HCT116 cells; assay: Detection of total and phospho-RSK by MSD ELISA (HCT116); assay type: cell-based; settings: Homo sapiens, HCT-116, read-out: ERK1/ERK2 PRSK HCT116 EC50
Item-by-item account of EC50

# count of solved cases: 5
- C=CC(=O)Nc1ccccc1Nc1nc(Nc2cc(OC)ccc2C)ncc1C(F)(F)F [Compound I-340]: 101 to 500 nM
- C=CC(=O)Nc1cc(OC)ccc1Nc1nc(Nc2cc(OC)nc(N3CCN(C)CC3)c2)ncc1C(F)(F)F [Compound I-334]: < 100 nM
- C=CC(=O)Nc1cc(C)ccc1Nc1nc(Nc2ccnc3ccccc23)ncc1C(F)(F)F [Compound I-379]: 501 to 999 nM
- C=CC(=O)Nc1cc(C)ccc1Nc1nc(Nc2cc(OC)nc(N3CC(O)C3)c2)ncc1C(F)(F)F [Compound I-328]: < 100 nM
- C=CC(=O)Nc1cc(C)ccc1Nc1nc(Nc2cc(C(N)=O)nn2C)ncc1C(F)(F)F [Compound I-423]: > 1000 nM

Can you look up the measured EC50 of C=CC(=O)Nc1cc(C(=O)N2CCN(C(=O)CO)CC2)ccc1Nc1nc(Nc2cc(OC)ncc2C)ncc1C(F)(F)F [Compound I-402] for me? 101 to 500 nM

Let us now turn to C=CC(=O)Nc1cc(F)ccc1Nc1nc(Nc2cc(OC)ncc2C)ncc1C(F)(F)F [Compound I-322] 101 to 500 nM
